molecular target: T1, CTNI quality control recombinant protein (PK2-CTNI-1, 170120, produced by the applicant) (human, UniProt P19429 2-210, limits assumed); test: AMC sensor kinetics, antibody captured, cTnI analyte
T1 construct: also called cardiac troponin I
T1 sequence (P19429 2-210 limits assumed): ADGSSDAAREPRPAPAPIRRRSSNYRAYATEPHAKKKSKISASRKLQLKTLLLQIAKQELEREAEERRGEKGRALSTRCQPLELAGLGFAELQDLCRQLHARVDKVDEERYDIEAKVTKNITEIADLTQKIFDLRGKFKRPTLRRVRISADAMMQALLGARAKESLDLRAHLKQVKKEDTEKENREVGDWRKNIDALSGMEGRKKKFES
kon vs 500000 M⁻¹ s⁻¹: less than gives y; not less than gives n.

>>> class_label("Mutation 1-36 (antibody, V domains shown, built as for Mutation 1) VH: EVQLQQSGAELVKPGASVKLSCTASGFNLKDYYMHWMKQRTEQGLDWIGRIDPEDGETRYAPEFQGKATITADTSSNTAYLQLSTLTSEDTAVYYCARYYSSYLPFVYWGQGTLVTASA VL: DVVMTQTPLSLSVSLGDQASISCRSSQSIIYSNRHTYLHWYLQKPGQSPKLLIFQLSNRFSGVPDRFSGSGSGTDFTLKINRVEAEDLGVYFCSQSTHIPYTFGSGTKLEIKR")
"n"
>>> class_label("Mutation 1-30 (antibody, V domains shown, built as for Mutation 1) VH: EVQLQQSGAELVKPGASVKLSCTASGFNIKDYFMHWMKQRTEQGLDWIGRIDPEDAETRYAPEFQGKATITADTSSNTAYLQLSTLTSEDTAVYYCARYYSSYLPFVYWGQGTLVTASA VL: DVVMTQTPLSLSVSLGDQASISCRSSQSIIYSNRHTYLHWYLQKPGQSPKLLIFQLSNRFSGVPDRFSGSGSGTDFTLKINRVEAEDLGVYFCSQSTHIPFTFGSGTKLEIKR")
"n"
>>> class_label("Mutation 1-51 (antibody, V domains shown, built as for Mutation 1) VH: EVQLQQSGAELVKPGASVKLSCTASGFNLKDYYMHWMKQRTEQGLDWIGRIDPEDGETRYAPEFQGKATITADTSSNTAYLQLSTLTSEDTAVYYCARYYSSYLPFVYWGQGTLVTASA VL: DVVMTQTPLSLSVSLGDQASISCRSSQSLIYSNRHTYLHWYLQKPGQSPKLLIFQLSNRFSGVPDRFSGSGSGTDFTLKINRVEAEDLGVYFCSQSTHLPYTFGSGTKLEIKR")
"y"
>>> class_label("Mutation 1-7 (antibody, V domains shown, built as for Mutation 1) VH: EVQLQQSGAELVKPGASVKLSCTASGFNIKDYYMHWMKQRTEQGLDWIGRIDPEDAETRYAPEFQGKATITADTSSNTAYLQLSTLTSEDTAVYYCARYYSSYIPFVYWGQGTLVTASA VL: DVVMTQTPLSLSVSLGDQASISCRSSQSLIYSNRHTYLHWYLQKPGQSPKLLIFQISNRFSGVPDRFSGSGSGTDFTLKINRVEAEDLGVYFCSQSTHLPYTFGSGTKLEIKR")
"n"
>>> class_label("Mutation 1-9 (antibody, V domains shown, built as for Mutation 1) VH: EVQLQQSGAELVKPGASVKLSCTASGFNLKDYYMHWMKQRTEQGLDWIGRIDPEDGETKYAPEFQGKATITADTSSNTAYLQLSTLTSEDTAVYYCARYYSSYIPFVYWGQGTLVTASA VL: DVVMTQTPLSLSVSLGDQASISCRSSQSLLYSNRHTYLHWYLQKPGQSPKLLIFQISNRFSGVPDRFSGSGSGTDFTLKINRVEAEDLGVYFCSQSTHIPYTFGSGTKLEIKR")
"y"
>>> class_label("Mutation 1-4 (antibody, V domains shown, built as for Mutation 1) VH: EVQLQQSGAELVKPGASVKLSCTASGFNLKDYFMHWMKQRTEQGLDWIGRIDPEDAETKYAPEFQGKATITADTSSNTAYLQLSTLTSEDTAVYYCARYYSSYVPFVYWGQGTLVTASA VL: DVVMTQTPLSLSVSLGDQASISCRSSQSLLYSNRHTYLHWYLQKPGQSPKLLIFQVSNRFSGVPDRFSGSGSGTDFTLKINRVEAEDLGVYFCSQSTHLPFTFGSGTKLEIKR")
"y"
>>> class_label("Mutation 1-12 (antibody, V domains shown, built as for Mutation 1) VH: EVQLQQSGAELVKPGASVKLSCTASGFNLKDYFMHWMKQRTEQGLDWIGRIDPEDGETKYAPEFQGKATITADTSSNTAYLQLSTLTSEDTAVYYCARYYSSYLPFVYWGQGTLVTASA VL: DVVMTQTPLSLSVSLGDQASISCRSSQSILYSNRHTYLHWYLQKPGQSPKLLIFQLSNRFSGVPDRFSGSGSGTDFTLKINRVEAEDLGVYFCSQSTHLPYTFGSGTKLEIKR")
"y"
>>> class_label("Mutation 1-15 (antibody, V domains shown, built as for Mutation 1) VH: EVQLQQSGAELVKPGASVKLSCTASGFNIKDYYMHWMKQRTEQGLDWIGRIDPEDGETRYAPEFQGKATITADTSSNTAYLQLSTLTSEDTAVYYCARYYSSYVPFVYWGQGTLVTASA VL: DVVMTQTPLSLSVSLGDQASISCRSSQSIIYSNRHTYLHWYLQKPGQSPKLLIFQVSNRFSGVPDRFSGSGSGTDFTLKINRVEAEDLGVYFCSQSTHIPYTFGSGTKLEIKR")
"y"
>>> class_label("Mutation 1-47 (antibody, V domains shown, built as for Mutation 1) VH: EVQLQQSGAELVKPGASVKLSCTASGFNLKDYYMHWMKQRTEQGLDWIGRIDPEDAETKYAPEFQGKATITADTSSNTAYLQLSTLTSEDTAVYYCARYYSSYVPFVYWGQGTLVTASA VL: DVVMTQTPLSLSVSLGDQASISCRSSQSLLYSNRHTYLHWYLQKPGQSPKLLIFQVSNRFSGVPDRFSGSGSGTDFTLKINRVEAEDLGVYFCSQSTHLPFTFGSGTKLEIKR")
"n"
>>> class_label("Mutation 1-5 (antibody, V domains shown, built as for Mutation 1) VH: EVQLQQSGAELVKPGASVKLSCTASGFNLKDYYMHWMKQRTEQGLDWIGRIDPEDGETRYAPEFQGKATITADTSSNTAYLQLSTLTSEDTAVYYCARYYSSYIPFVYWGQGTLVTASA VL: DVVMTQTPLSLSVSLGDQASISCRSSQSIIYSNRHTYLHWYLQKPGQSPKLLIFQISNRFSGVPDRFSGSGSGTDFTLKINRVEAEDLGVYFCSQSTHIPFTFGSGTKLEIKR")
"y"
